assay target: T1, mouse MuSK, endogenous (C2C12 myotubes; neuromuscular synapses of mice) (mouse, UniProt Q61006 22-868)
T1 sequence (looked up): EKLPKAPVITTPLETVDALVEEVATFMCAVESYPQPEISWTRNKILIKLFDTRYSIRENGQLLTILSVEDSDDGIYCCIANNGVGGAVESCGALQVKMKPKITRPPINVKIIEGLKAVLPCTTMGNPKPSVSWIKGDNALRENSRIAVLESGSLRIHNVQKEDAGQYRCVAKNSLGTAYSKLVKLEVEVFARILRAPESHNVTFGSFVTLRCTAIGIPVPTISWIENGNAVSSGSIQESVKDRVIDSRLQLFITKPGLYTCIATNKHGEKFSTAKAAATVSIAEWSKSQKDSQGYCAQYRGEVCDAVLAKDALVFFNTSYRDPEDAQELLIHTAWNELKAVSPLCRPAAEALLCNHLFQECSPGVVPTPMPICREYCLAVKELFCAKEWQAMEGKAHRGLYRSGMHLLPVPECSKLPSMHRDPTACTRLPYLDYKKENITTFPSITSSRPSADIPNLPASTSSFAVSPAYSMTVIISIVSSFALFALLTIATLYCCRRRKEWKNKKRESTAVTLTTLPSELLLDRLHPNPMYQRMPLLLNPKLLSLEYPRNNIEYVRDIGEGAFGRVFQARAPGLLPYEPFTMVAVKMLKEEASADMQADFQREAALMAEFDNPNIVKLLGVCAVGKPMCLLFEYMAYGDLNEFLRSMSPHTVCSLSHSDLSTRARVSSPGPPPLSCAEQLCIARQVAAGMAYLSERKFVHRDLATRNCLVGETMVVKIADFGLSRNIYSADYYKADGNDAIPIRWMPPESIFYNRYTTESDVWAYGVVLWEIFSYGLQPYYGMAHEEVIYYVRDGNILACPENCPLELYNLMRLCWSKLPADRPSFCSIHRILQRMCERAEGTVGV
test description: cell-based or functional assay
measured metric: MuSK phosphorylation in C2C12 myotubes

Fill in reported MuSK phosphorylation in C2C12 myotubes for this entry: 3B2g2m4 (antibody, human IgG1, V domains shown, human IgG1-LALA backbone; produced in HEK293 cells) VH: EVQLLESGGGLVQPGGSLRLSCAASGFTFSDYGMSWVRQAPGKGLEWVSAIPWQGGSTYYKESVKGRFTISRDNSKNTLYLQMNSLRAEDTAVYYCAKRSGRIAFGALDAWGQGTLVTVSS VL: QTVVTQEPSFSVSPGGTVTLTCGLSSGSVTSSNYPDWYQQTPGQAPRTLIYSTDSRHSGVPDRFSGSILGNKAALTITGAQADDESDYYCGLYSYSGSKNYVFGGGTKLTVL
~58 % of 1 nM agrin

Fill in reported MuSK phosphorylation in C2C12 myotubes for this entry: 3B2g1m4 (antibody, human IgG1, V domains shown, human IgG1-LALA backbone; produced in HEK293 cells) VH: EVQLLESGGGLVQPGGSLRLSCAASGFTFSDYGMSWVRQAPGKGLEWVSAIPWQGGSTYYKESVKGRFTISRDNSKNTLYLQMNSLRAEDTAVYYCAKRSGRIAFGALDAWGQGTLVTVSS VL: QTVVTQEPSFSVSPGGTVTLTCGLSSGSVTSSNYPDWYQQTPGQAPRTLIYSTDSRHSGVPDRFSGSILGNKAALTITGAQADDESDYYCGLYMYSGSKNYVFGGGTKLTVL
~58 % of 1 nM agrin

Fill in reported MuSK phosphorylation in C2C12 myotubes for this entry: 3B2g2m2 (antibody, human IgG1, V domains shown, human IgG1-LALA backbone; produced in HEK293 cells) VH: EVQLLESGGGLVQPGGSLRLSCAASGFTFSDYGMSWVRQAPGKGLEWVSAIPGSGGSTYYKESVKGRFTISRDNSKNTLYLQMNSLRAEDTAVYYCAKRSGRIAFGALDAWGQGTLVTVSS VL: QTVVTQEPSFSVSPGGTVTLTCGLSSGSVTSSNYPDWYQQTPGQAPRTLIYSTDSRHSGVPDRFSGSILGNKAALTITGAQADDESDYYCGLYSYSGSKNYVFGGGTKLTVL
~80 % of 1 nM agrin

Fill in reported MuSK phosphorylation in C2C12 myotubes for this entry: 3B2g1m2 (antibody, human IgG1, V domains shown, human IgG1-LALA backbone; produced in HEK293 cells) VH: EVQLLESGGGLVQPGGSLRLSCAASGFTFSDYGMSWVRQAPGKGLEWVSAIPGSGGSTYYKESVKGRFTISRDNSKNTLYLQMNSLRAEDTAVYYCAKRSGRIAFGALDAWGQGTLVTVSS VL: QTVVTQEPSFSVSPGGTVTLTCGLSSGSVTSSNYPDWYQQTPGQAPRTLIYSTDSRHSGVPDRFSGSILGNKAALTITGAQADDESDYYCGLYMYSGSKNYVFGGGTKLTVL
~80 % of 1 nM agrin
